Parameter: IC50 (µg/ml) with constrains. Scope: all listed entries.
- TGT: HIV Env of isolate T211-9 (clade AG) (HIV)
- ASSAY_NAME: cell-based or functional assay
Numeric answer only, unit µg/mL assumed.

Worked examples, 3 binders total:
[[record]]
binder = "PGDM1400 (antibody, V domains shown) VH: QVHLTQSGPEVRKPGTSVKVSCKAPGNTLKTYDLHWVRSVPGQGLQWMGWISHEGDKKVIVERFKAKVTIDWDRSTNTAYLQLSGLTSGDTAVYYCAKGSKHRLRDYALYDDDGALNWAVDVDYLSNLEFWGQGTAVTVSS VL: DFVLTQSPHSLSVTPGESASISCKSSHSLIHGDRNNYLAWYVQKPGRSPQLLIYLASSRASGVPDRFSGSGSDKDFTLKISRVETEDVGTYYCMQGRESPWTFGQGTKVDIK"
result = 0.058

[[record]]
binder = "ePGDM9 (antibody, V domains shown) VH: QAQLVQSGPEVRKPGTSVKVSCKNPGNTLTTYDLHWVRQVPGQGLQWMGWISHEGDKKVIVERFKAKVTIDWDRSTNTAYLQLSGLTSEDTAVYYCAKGSKHRLRDYALYDEDGALNWAVDVDYLANLEFWGQGTAVTVSS VL: DIVLTQSPLSLSVTPGESASISCKSSQSLIHGDRNNYLAWYVQKPGRSPQLLIDLASERASGVPDRFSGSGSRKDFTLKISRVETEDVGTYYCMQGRESPWTFGQGTKVDIK"
result = 0.02

[[record]]
binder = "ePGDM13 (antibody, V domains shown) VH: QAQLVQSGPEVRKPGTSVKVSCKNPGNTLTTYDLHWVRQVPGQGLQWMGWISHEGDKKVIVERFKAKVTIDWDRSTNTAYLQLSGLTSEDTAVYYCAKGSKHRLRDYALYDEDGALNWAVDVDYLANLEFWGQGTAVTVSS VL: DIVLTQSPLSLSVTPGESASISCKSSHSLQHGDRNNYLAWYVQKPGRSPQLLLDLASERASGVPDRFSGSGSEKDFTLKISRVETEDVGTYYCMQGRESPWTFGQGTKVDIK"
result = 0.028


Now for a further binder.
Recorded IC50 (µg/ml) with constrains (binder ePGDM5 (antibody, V domains shown) VH: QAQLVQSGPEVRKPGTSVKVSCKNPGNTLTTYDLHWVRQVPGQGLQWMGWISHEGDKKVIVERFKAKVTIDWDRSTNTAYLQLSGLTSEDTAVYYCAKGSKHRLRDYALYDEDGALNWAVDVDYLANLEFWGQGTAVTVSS VL: DFVLTQSPLSLSVTPGESASISCKSDHSLQHGDRNNYLAWYVQKPGRSPQLLIDLASERASGVPDRFSGSGSRKDFTLKIDRVEAEDVGTYYCMQGRESPWTFGQGTKVDIK ): 0.025

Reference source: patent US20230134571A1
